Test system: MDA-MB-231
procedure.text: relative cell viability, compound alone, vs DMSO (fraction of DMSO control); higher = less growth inhibition
test.context: 72 h
Label Criterion met when relative cell viability < 0.9; otherwise Criterion not met.

Record excerpt, results attached:
COc1cccc(CNc2ccc(S(=O)(=O)Nc3nc4ccccc4s3)cc2)c1O	Criterion not met
COc1cc(O)c2c(c1)O[C@H](c1ccc(O)cc1)CC2=O	Criterion not met
NC(N)=NN=Cc1cccc(Cl)c1Cl	Criterion met
CCCC[S+]([O-])c1sc2nc(-c3cccs3)cc(-c3ccccc3)c2c1N (configuration not stated)	Criterion met
O=C(O)C(=O)Nc1sc2c(c1C(=O)O)CCNC2	Criterion met

Now turn to the next compound.
Exam item: Is 0.9 strictly greater than the compound's reported relative cell viability? compound: CCOP(=O)(OCC)C(=Cc1cc(C(C)(C)C)c(O)c(C(C)(C)C)c1)P(=O)(OCC)OCC
Marked response: Criterion met

----------
Consider the following compounds; for each one, report its relative cell viability.
System: HCC1937
procedure.text: relative cell viability, compound alone, vs DMSO (fraction of DMSO control); higher = less growth inhibition
test.context: 72 h
Structures can show the parent of a compound that is named as a salt.
One number for each entry.

Consider the worked cases shown below.
CC(C)n1c(/C=C/C(O)CC(O)CC(=O)O)c(-c2ccc(F)cc2)c2ccccc21 (stereo not given) [Fluvastatin sodium salt]	0.924
CC(C)=CCC[C@](C)(O[C@@H]1O[C@H](CO)[C@@H](O)[C@H](O)[C@H]1O)[C@H]1CC[C@]2(C)[C@@H]1[C@H](O)C[C@@H]1[C@@]3(C)CC[C@H](O[C@@H]4O[C@H](CO)[C@@H](O)[C@H](O)[C@H]4O[C@@H]4O[C@H](CO)[C@@H](O)[C@H](O)[C@H]4O)C(C)(C)[C@@H]3CC[C@]12C [Ginsenoside Rd]	0.834
O=C(Nc1ccc(C(O)(C(F)(F)F)C(F)(F)F)cc1)c1ccc(C(F)(F)F)cc1	0.54
N=C(N)NCCC(=O)O [3-Guanidinopropionic Acid]	0.734

Could you now consider this next compound?
Exam item: Form field: reported relative cell viability of CC(c1cc2ccccc2s1)N(O)C(N)=O (stereo not given) [Zileuton]
Marked response: 1.21

----------
System: MDA-MB-231
procedure.text: relative cell viability, compound + RSL3, vs DMSO (fraction of DMSO control); higher = less growth inhibition
test.context: 72 h
quantity.name: relative cell viability
One number for each entry.

Please give relative cell viability, item by item, for the list that follows.
1. CCC(=O)O[C@]1(C(=O)CCl)[C@@H](C)C[C@H]2[C@@H]3C[C@H](F)C4=CC(=O)C=C[C@]4(C)[C@@]3(F)[C@@H](O)C[C@@]21C [Halobetasol Propionate] + COC(=O)c1ccc([C@H]2c3[nH]c4ccccc4c3C[C@H](C(=O)OC)N2C(=O)CCl)cc1
2. O=C(CN1CCN(C(=O)c2ccco2)CC1)Nc1cc(C(F)(F)F)ccc1Cl + COC(=O)c1ccc([C@H]2c3[nH]c4ccccc4c3C[C@H](C(=O)OC)N2C(=O)CCl)cc1
3. CCCCCCCCCCCCCCOc1ccc(C(=O)OCC(=O)N(C)CC(=O)OCC)o1 [Olumacostat Glasaretil] + COC(=O)c1ccc([C@H]2c3[nH]c4ccccc4c3C[C@H](C(=O)OC)N2C(=O)CCl)cc1
4. COC(=O)N(CC(=O)O)Cc1cccc(OCc2nc(-c3ccc(Cl)cc3)oc2C)c1 + COC(=O)c1ccc([C@H]2c3[nH]c4ccccc4c3C[C@H](C(=O)OC)N2C(=O)CCl)cc1
5. Cc1ccc(C)c(OCCCC(C)(C)C(=O)O)c1 [Gemfibrozil] + COC(=O)c1ccc([C@H]2c3[nH]c4ccccc4c3C[C@H](C(=O)OC)N2C(=O)CCl)cc1

Marked response:
1. 0.592
2. 0.373
3. 0.278
4. 0.709
5. 0.523

Please give relative cell viability, item by item, for the list that follows.
1. O=c1c(-c2ccc(O)cc2)coc2cc(O)ccc12 [Daidzein] + COC(=O)c1ccc([C@H]2c3[nH]c4ccccc4c3C[C@H](C(=O)OC)N2C(=O)CCl)cc1
2. CC(=O)N1CCN(c2ccc(OCC3COC(Cn4ccnc4)(c4ccc(Cl)cc4Cl)O3)cc2)CC1 (centres undefined) [Ketoconazole] + COC(=O)c1ccc([C@H]2c3[nH]c4ccccc4c3C[C@H](C(=O)OC)N2C(=O)CCl)cc1

Marked response:
1. 0.608
2. 0.488

Please give relative cell viability, item by item, for the list that follows.
1. CCCc1c(-c2ccccc2)[nH]n(-c2ccccn2)c1=O [APX-115 free base] + COC(=O)c1ccc([C@H]2c3[nH]c4ccccc4c3C[C@H](C(=O)OC)N2C(=O)CCl)cc1
2. COc1ccc(-c2c[nH]c3nccc(-c4ccsc4)c23)c(OC)c1 + COC(=O)c1ccc([C@H]2c3[nH]c4ccccc4c3C[C@H](C(=O)OC)N2C(=O)CCl)cc1
3. O=C(O)c1cccc(N=Nc2c(O)[nH]c3ccc(S(=O)(=O)NCc4ccc(F)cc4)cc23)c1 + COC(=O)c1ccc([C@H]2c3[nH]c4ccccc4c3C[C@H](C(=O)OC)N2C(=O)CCl)cc1

Marked response:
0.415
0.665
0.611

Please give relative cell viability, item by item, for the list that follows.
1. O=C(c1ccc(-c2nc3ccc(F)cc3o2)cc1)N1CCN(C(=O)C2(O)CC2)CC1 + COC(=O)c1ccc([C@H]2c3[nH]c4ccccc4c3C[C@H](C(=O)OC)N2C(=O)CCl)cc1
2. NC(N)=N/N=C/c1cccc(Cl)c1Cl [Raphin1 acetate] + COC(=O)c1ccc([C@H]2c3[nH]c4ccccc4c3C[C@H](C(=O)OC)N2C(=O)CCl)cc1
3. COc1ccc2c(c1)CCC1C2CCC2(C)C(NCCCCCCN3C(=O)C=CC3=O)CCC12 (centres undefined) + COC(=O)c1ccc([C@H]2c3[nH]c4ccccc4c3C[C@H](C(=O)OC)N2C(=O)CCl)cc1
4. C[C@H](CCC(=O)O)[C@H]1CC[C@H]2[C@@H]3CC[C@@H]4C[C@H](O)CC[C@]4(C)[C@H]3CC[C@]12C [Lithocholic acid] + COC(=O)c1ccc([C@H]2c3[nH]c4ccccc4c3C[C@H](C(=O)OC)N2C(=O)CCl)cc1

Marked response:
1. 0.683
2. 0.603
3. 0.36
4. 0.649

----------
Test system: HCC1937
procedure.text: relative cell viability, compound alone, vs DMSO (fraction of DMSO control); higher = less growth inhibition
test.context: 72 h
Where a name gives a salt, the structure may show the parent alone.
Label Satisfied when relative cell viability < 0.8; otherwise Not satisfied.

CC(C)OC(=O)C(C(=O)OC(C)C)=C1SC=CS1 [Malotilate]	Satisfied
CC1(C)CC[C@]2(C(=O)O[C@@H]3O[C@H](CO)[C@@H](O)[C@H](O)[C@H]3O)CC[C@]3(C)C(=CC[C@@H]4[C@@]5(C)CC[C@H](O[C@@H]6O[C@H](C(=O)O)[C@@H](O)[C@H](O)[C@H]6O)C(C)(C)[C@@H]5CC[C@]43C)[C@@H]2C1	Not satisfied
CN1CCN(c2ccc(/C=C(\C#N)c3ccccc3Br)cc2)CC1 [DG172 (dihydrochloride)]	Not satisfied
C[C@@H]1O[C@@H](O[C@H]2[C@H](Oc3cc(O)c4c(c3)O[C@H](c3ccc(O)cc3)CC4=O)O[C@H](CO)[C@@H](O)[C@@H]2O)[C@H](O)[C@H](O)[C@H]1O	Not satisfied
CC(=O)Oc1cc(C(F)(F)F)ccc1C(=O)O	Not satisfied
NC(CO)C(=O)O (racemic)	Satisfied

Exam item: Is 0.8 strictly greater than the molecule's reported relative cell viability? molecule: O=C(O)/C=C/c1ccc(O)c(O)c1
Marked response: Satisfied

Exam item: Is 0.8 strictly greater than the molecule's reported relative cell viability? molecule: C[C@H](CCC(=O)O)[C@H]1CC[C@H]2[C@@H]3CC[C@@H]4C[C@H](O)CC[C@]4(C)[C@H]3CC[C@]12C
Marked response: Not satisfied

Exam item: Is 0.8 strictly greater than the molecule's reported relative cell viability? molecule: CCOC(=O)N1c2ccc(C(F)(F)F)cc2[C@@H](N(Cc2cc(C(F)(F)F)cc(C(F)(F)F)c2)C(=O)OC)C[C@H]1CC
Marked response: Satisfied

Exam item: Is 0.8 strictly greater than the molecule's reported relative cell viability? molecule: Cc1coc2c1C(=O)C(=O)c1c-2ccc2c(C)cccc12
Marked response: Satisfied

Exam item: Is 0.8 strictly greater than the molecule's reported relative cell viability? molecule: O=C(/C=C/c1ccc(/C=C/C(=O)Nc2ccc(C3=NCCN3)cc2)cc1)Nc1ccc(C2=NCCN2)cc1
Marked response: Satisfied

----------
System: HCC1937
procedure.text: relative cell viability, compound alone, vs DMSO (fraction of DMSO control); higher = less growth inhibition
test.context: 72 h
Structures can show the parent of a compound that is named as a salt.
Label Yes when relative cell viability < 0.8; otherwise No.

CCCCCCCCCCCCC/C=C/[C@@H](O)[C@@H](N)CO	Yes

Exam item: Is 0.8 strictly greater than the compound's reported relative cell viability? compound: CC(C)[C@H](N=C(NS(=O)(=O)c1ccc(Cl)cc1)N1C[C@H](c2ccccc2)C(c2ccc(Cl)cc2)=N1)C(N)=O
Marked response: No

Exam item: Is 0.8 strictly greater than the compound's reported relative cell viability? compound: O=C(OC(C(F)(F)F)C(F)(F)F)N1CCN(Cc2ccc(C(F)(F)F)cc2N2CCCC2)CC1
Marked response: No

Exam item: Is 0.8 strictly greater than the compound's reported relative cell viability? compound: CCN(CC)CCCC(C)Nc1c2ccc(Cl)cc2nc2ccc(OC)cc12 (configuration not stated) [Quinacrine dihydrochloride]
Marked response: Yes

Exam item: Is 0.8 strictly greater than the compound's reported relative cell viability? compound: C[N+](C)(C)CC(O)CC(=O)[O-] (stereo not drawn) [L(-)-Carnitine]
Marked response: Yes

Data provenance: the supplement of paper PMC9492666
